target: T1, human LIGHT (TNFSF14), full length, membrane-bound (214E allele) (human, UniProt O43557 1-240); test: flow cytometry, maximum signal compared with F19 and F23
T1 construct: also called membrane LIGHT; human membrane LIGHT
T1 sequence (O43557 whole entry K214E): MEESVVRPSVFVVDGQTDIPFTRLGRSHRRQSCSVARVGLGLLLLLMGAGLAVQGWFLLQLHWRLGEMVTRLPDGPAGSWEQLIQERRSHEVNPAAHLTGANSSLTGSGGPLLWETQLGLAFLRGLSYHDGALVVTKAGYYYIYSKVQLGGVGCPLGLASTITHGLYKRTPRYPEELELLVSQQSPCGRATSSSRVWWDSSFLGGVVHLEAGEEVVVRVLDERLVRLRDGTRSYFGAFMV
Hi there, I'd appreciate the recorded binding ratio, mAb per LIGHT trimer for every entry that follows.

# map each binder to its binding ratio, mAb per LIGHT trimer
1. 3E09 (antibody, V domains shown, chimeric human IgG4 (S-to-P, L-to-E at 248), human CL; also called Parental 3E09) VH: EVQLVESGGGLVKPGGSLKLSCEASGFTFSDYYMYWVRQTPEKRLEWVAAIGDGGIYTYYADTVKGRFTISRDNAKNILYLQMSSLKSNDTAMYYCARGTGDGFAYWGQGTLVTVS VL: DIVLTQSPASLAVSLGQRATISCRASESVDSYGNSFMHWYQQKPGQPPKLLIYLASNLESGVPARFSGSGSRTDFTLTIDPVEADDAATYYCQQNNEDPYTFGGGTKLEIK
2. 2B11 (antibody, human IgG4, V domains shown, chimeric human IgG4 (S-to-P, L-to-E at 248), human CL; also called Parental 2B11) VH: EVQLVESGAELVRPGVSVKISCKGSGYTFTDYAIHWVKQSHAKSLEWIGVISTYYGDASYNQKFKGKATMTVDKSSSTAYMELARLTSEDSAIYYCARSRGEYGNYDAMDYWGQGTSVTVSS VL: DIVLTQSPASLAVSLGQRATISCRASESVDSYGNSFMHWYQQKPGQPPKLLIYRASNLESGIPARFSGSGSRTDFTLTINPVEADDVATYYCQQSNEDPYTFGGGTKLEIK

## Output
["1 mAb per LIGHT trimer", "1 mAb per LIGHT trimer"]
